src = ChEMBL document CHEMBL3301458

- experimental.system: hERG (Kv11.1, KCNH2) (Homo sapiens)
- assay.text: in vitro
- Description: MMV: Malaria Box compounds were tested for inhibition of the human ether a go-go related gene (hERG), Kv11.1 channel, using IonWorks 384-well patch clamp electrophysiology at 11.1uM (3 independent assay plates up to 12 cells per concentration).
Catalogue of inhibition at 11.1 µM readings, one per entry.
Write the answer as a number in %, unit excluded.

- Clc1cc(Br)ccc1-c1ccc(CNCC2CCNCC2)o1: 83

## Task Which inhibition at 11.1 µM value belongs to COc1cccc(NC(=O)[C@H](C(C)C)n2c(=O)[nH]c3ccccc3c2=O)c1 ?
## Result 17

## Task What do we get for CCN(CC)CCCNc1nc(-c2ccc(Cl)cc2)nc2ccccc12 ?
## Result 94

## Task What do we get for CCOc1ccc(-c2nonc2NC(=O)c2cccc(C)c2)cc1OCC ?
## Result 0

## Task What do we get for OC(CNCc1ccccc1)Cn1c2ccccc2c2ccccc21 (stereo unspecified) ?
## Result 94

## Task What do we get for Cc1ccc(C(=O)c2oc3ccc4c(C)cc(=O)oc4c3c2C)cc1 ?
## Result 7

###

- experimental.system: UniProtKB Q12809
- assay.text: in vitro
- Description: MMV: Malaria Box compounds were tested for inhibition of the human ether a go-go related gene (hERG), Kv11.1 channel, using IonWorks 384-well patch clamp electrophysiology at 1.1uM (3 independent assay plates up to 12 cells per concentration).
observation.type: inhibition at 1.1 µM (%)
Write the answer as a number in %, unit excluded.

## Task Which inhibition at 1.1 µM value belongs to Oc1c(CN2CCN(c3ccccc3F)CC2)cc(Br)c2cccnc12 ?
## Result -9

## Task What do we get for COc1ccc(CCn2c(=N)c(C(=O)NCc3cccnc3)cc3c(=O)n4cccc(C)c4nc32)cc1 ?
## Result 19

## Task What do we get for CC1CC(C)CN(C(=O)c2ccc(Cl)cc2Cl)C1 (stereo unspecified) ?
## Result -3

###

- experimental.system: hERG (Kv11.1, KCNH2) (Homo sapiens, UniProt Q12809)
- Sequence (Q12809 whole entry): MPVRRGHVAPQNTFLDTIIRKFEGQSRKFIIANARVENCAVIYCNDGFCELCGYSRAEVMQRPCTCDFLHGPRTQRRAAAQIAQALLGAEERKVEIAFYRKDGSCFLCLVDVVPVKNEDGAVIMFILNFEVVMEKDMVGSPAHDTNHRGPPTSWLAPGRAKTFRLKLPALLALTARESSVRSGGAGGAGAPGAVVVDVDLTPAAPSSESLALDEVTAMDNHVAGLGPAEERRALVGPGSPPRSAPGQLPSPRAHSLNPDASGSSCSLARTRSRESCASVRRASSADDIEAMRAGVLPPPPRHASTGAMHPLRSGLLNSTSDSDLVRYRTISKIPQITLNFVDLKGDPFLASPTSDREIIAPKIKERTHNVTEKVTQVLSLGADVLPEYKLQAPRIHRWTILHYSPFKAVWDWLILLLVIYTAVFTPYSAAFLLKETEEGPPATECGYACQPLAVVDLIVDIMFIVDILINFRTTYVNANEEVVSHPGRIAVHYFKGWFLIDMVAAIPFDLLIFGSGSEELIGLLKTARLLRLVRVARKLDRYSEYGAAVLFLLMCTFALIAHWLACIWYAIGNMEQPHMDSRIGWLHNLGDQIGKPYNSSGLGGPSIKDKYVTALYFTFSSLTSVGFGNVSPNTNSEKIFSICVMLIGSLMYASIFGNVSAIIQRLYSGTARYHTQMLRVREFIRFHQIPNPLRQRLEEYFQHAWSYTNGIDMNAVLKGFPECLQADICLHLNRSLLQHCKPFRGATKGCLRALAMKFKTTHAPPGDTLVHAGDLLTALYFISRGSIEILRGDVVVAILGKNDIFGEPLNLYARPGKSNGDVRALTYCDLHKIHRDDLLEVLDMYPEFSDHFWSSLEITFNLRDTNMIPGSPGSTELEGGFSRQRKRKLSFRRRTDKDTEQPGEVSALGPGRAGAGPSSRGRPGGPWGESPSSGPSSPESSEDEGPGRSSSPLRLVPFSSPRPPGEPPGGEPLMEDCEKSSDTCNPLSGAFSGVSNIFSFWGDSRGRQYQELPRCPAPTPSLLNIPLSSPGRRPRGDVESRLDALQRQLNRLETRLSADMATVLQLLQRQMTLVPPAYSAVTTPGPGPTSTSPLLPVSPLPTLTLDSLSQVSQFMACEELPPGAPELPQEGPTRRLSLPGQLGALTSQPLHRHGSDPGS
- assay.text: in vitro
observation.type: inhibition at 1.1 µM (%)
Write the answer as a number in %, unit excluded.

Reference set (3 entries):
- COc1ccc2c(c1)OC(O)(C(F)(F)C(F)(F)F)CC2=O (stereo not given): 4
- O=C1c2ccc3c4c(ccc(c24)C(=O)N1CCCCO)C(=O)N(CCCCO)C3=O: 3
- COc1ccc(/C=C2/SC(=Nc3ccccc3)NC2=O)cc1: 12

## Task Which inhibition at 1.1 µM value belongs to Oc1ccccc1CNCC12CC3CC(CC(C3)C1)C2 ?
## Result 20

## Task What do we get for CC(C)(C)c1ccc2c(c1)CN(Cc1ccc(Cl)cc1)CO2 ?
## Result 25

## Task What do we get for CCN(CC)CCNc1ncnc2c1[nH]c1ccc(Cl)cc12 ?
## Result 99

###

Catalogue of inhibition at 11.1 µM readings, one per entry.
- experimental.system: hERG (Kv11.1, KCNH2) (Homo sapiens, UniProt Q12809)
- assay.text: in vitro
Active and inactive are the calls of the source. No rule for the calls is given here.

- Cc1ccc(Nc2nc(N)c3ccccc3n2)cc1Cl: 85% (active)

## Task Which inhibition at 11.1 µM value belongs to COc1ccc(C2Sc3ccccc3N=C3C2=C(O)c2ccccc23)cc1 (stereo not given) ?
## Result 26%

## Task What do we get for CN(C)CCCNc1c2ccccc2nc2ccccc12 ?
## Result 31%

## Task What do we get for COc1ccc(C(C)=O)cc1N1C(=O)C2C(C1=O)C1(c3ccccc3)C(=O)C2(c2ccccc2)C(c2ccc(C)cc2)=C1c1ccc(C)cc1 (stereo not given) ?
## Result -1% (inactive)

## Task What do we get for CCOC(=O)c1cnc2ccc(OC)cc2c1Nc1ccc(N2CCN(C)CC2)cc1 ?
## Result 15% (inactive)

## Task What do we get for CCOC(=O)c1ccc2[nH]c(-c3ccccc3)cc(=O)c2c1 ?
## Result 7% (inactive)

###

- experimental.system: hERG (Kv11.1, KCNH2) (Homo sapiens, UniProt Q12809)
- assay.text: in vitro
observation.type: inhibition at 1.1 µM (%)
Write the answer as a number in %, unit excluded.

• CCOc1ccccc1CN1CCc2nc3cc(C(C)(C)C)nn3c(O)c2C1 = -1

## Task Which inhibition at 1.1 µM value belongs to CCOc1ccc(CCNC(=O)c2cccs2)cc1OCC ?
## Result 9

## Task What do we get for COc1cccc(O)c1CN1CCC2(CCCN(Cc3ccc(F)cc3)C2)C1 (configuration not stated) ?
## Result 0

## Task What do we get for CCCOCc1cc(CN2CCN(c3cccc(Cl)c3)CC2)c(O)c2ncccc12 ?
## Result 3

## Task What do we get for CCCCCn1c(=N)n(CC(O)COc2cccc(C)c2)c2ccccc21 (configuration not stated) ?
## Result 59

## Task What do we get for c1ccc2cc3c(Nc4ccc(N5CCOCC5)cc4)ccnc3cc2c1 ?
## Result 38

## Task What do we get for CN(C)CCCNCc1ccc(-c2ccc(F)c(Cl)c2)o1 ?
## Result 3

## Task What do we get for Oc1ccc(Cl)cc1CNc1nc2ccccc2[nH]1 ?
## Result 14

## Task What do we get for O=C(Nc1ccc(CN2CCOCC2)cc1)c1ccc(-c2ccc(Br)cc2)o1 ?
## Result 42

###

- experimental.system: hERG (Kv11.1, KCNH2) (Homo sapiens)
- assay.text: in vitro
observation.type: inhibition at 11.1 µM (%)
Write the answer as a number in %, unit excluded.

Reference set (3 entries):
- COCCN(C(=O)Cc1cccs1)C(C(=O)NCc1ccc(OC)cc1)c1ccc(C(C)C)cc1 (stereo unspecified): 52
- CCCn1c(=N)c(C(=O)NC2CCCCC2)cc2c(=O)n3cccc(C)c3nc21: 105
- Cc1ccc(-c2cc3nc4c(c(O)n3n2)CCCC4)cc1: 11

Kindly consider the entry below.
## Task Which inhibition at 11.1 µM value belongs to CCOC(=O)c1cnc2c(C)cc(C)cc2c1Nc1ccc(OC)c(OC)c1 ?
## Result 18

###

- experimental.system: hERG (Kv11.1, KCNH2) (Homo sapiens)
- assay.text: in vitro
Is inhibition at 11.1 µM at least 40%? Then 1 (yes). If not, 0 (no).

* O=C(Nc1cccc(C2=NCCN2)c1)Nc1cccc(C2=NCCN2)c1 [IMIDOCARB] | 1 (yes)

## Task Item Oc1ccccc1CN1CCC2(CCCN(Cc3ccccc3F)C2)C1 (configuration not stated) with inhibition at 11.1 µM of 40% or above?
## Result 1 (yes)

## Task What do we get for OC1=C2C(=Nc3ccccc3SC2c2ccc(Br)cc2)c2ccccc21 (configuration not stated) ?
## Result 0 (no)

## Task What do we get for Cc1ccc(-c2nc3ccccc3o2)cc1NCc1cc(Cc2ccccc2)ccc1O ?
## Result 0 (no)

## Task What do we get for COc1ccc(N2CCN(C(CNC(=O)C3CCCCC3)c3ccc4c(c3)OCO4)CC2)cc1 (configuration not stated) ?
## Result 1 (yes)

## Task What do we get for COc1ccccc1N1CCN(C(CNS(=O)(=O)c2ccc(Cl)cc2)c2cccnc2)CC1 (configuration not stated) ?
## Result 1 (yes)

## Task What do we get for CCN1CCN(Cc2ccc(NC(=O)c3cc4ccc5cccnc5c4[nH]3)cc2)CC1 ?
## Result 1 (yes)

## Task What do we get for FC(F)(F)c1cccc(CNC2CCN(CCc3ccccc3)CC2)c1 ?
## Result 1 (yes)

###

- experimental.system: hERG (Kv11.1, KCNH2) (Homo sapiens)
- assay.text: in vitro
Is inhibition at 1.1 µM at least 10%? Then True. If not, False.

• Cc1sc(NC(=O)c2ccco2)c(C(c2cccnc2)N2CCC(Cc3ccccc3)CC2)c1C (stereo not given) = False
• CCOc1ccc2nc(C)cc(Nc3ccc(Br)cc3)c2c1 = False
• O=C(Nc1cccc(-c2nc3ccccc3[nH]2)c1)c1cccc(NC(=O)c2ccco2)c1 = False

## Task Item COc1ccc(CNC2CCN(c3ccc(NC(=O)c4cccc(Cl)c4)cc3)CC2)cc1OC with inhibition at 1.1 µM of 10% or above?
## Result True

###

- experimental.system: hERG (Kv11.1, KCNH2) (Homo sapiens, UniProt Q12809)
- assay.text: in vitro
Catalogue of inhibition at 1.1 µM readings, one per entry.
Write the answer as a number in %, unit excluded.

Reference set (10 entries):
* CC(C)(C)c1ccc(O)c(CNC2CCCCC2)c1 | 10
* Cc1cc(Nc2ccc(Cl)cc2)n2nc(C(F)(F)F)nc2n1 | 19
* CCOC(=O)c1c(C)n(-c2ccc(Cl)cc2)c2ccc(OC(=O)C=Cc3ccccc3)cc12 | 2
* COc1ccc(C2C(C(=O)Nc3cccc(OC)c3)c3ccccc3C(=O)N2C2CCCCC2)cc1 (stereo not given) | 4
* CC(=O)NCCc1nc2ccccc2n1Cc1ccc(C(C)C)cc1 | 6
* COc1ccc(-c2nc(N3CCN(C(=O)C4CCCCC4)CC3)c3c4c(sc3n2)CCCC4)cc1 | 7
* CC(C)CNC(=O)c1c(N)n(CCc2ccccc2F)c2nc3ccccc3nc12 | 17
* COc1ccccc1CNC(=O)CCn1c(=O)[nH]c2ccccc2c1=O | -6
* CCOc1ccc(Nc2c3ccccc3nc3ccccc23)cc1 | 68
* CC1CCN(Cc2ccc(NC(=O)c3cc4ccc5cccnc5c4[nH]3)cc2)CC1 | 64

## Task Which inhibition at 1.1 µM value belongs to COc1cc2c(cc1OC)C1=NNC(=O)C1=NC(C)(C)C2 ?
## Result 9

## Task What do we get for Cc1cc(NC(=O)c2ccc(-c3ccccc3)cc2)no1 ?
## Result -2

## Task What do we get for CC(C)=CCN1CCC(C(=O)Nc2ccc(-c3nc4ccccc4[nH]3)cc2)CC1 ?
## Result 0

## Task What do we get for CCCCC(O)(c1ccc(Cl)cc1)C(CN1CCOCC1)c1ccc(Cl)cc1 (stereo not given) ?
## Result 18
